What EC50 was measured for each of the following?
- measured on: 229E Mpro (Human coronavirus 229E)
- Sequence (P0C6X1 2966-3267): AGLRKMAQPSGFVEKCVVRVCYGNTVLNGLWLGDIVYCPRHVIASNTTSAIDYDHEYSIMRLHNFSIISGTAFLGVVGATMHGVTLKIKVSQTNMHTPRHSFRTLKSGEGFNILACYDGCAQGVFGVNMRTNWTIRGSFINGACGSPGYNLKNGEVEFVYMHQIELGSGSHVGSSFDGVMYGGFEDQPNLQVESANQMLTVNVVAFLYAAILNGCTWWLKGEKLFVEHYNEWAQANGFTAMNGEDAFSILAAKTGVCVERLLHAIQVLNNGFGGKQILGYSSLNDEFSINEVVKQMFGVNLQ
- assay comment: 229E Mpro enzymatic assay (standard methods, SARS-CoV2 Mpro assay given as exemplary)
- Format: biochemical, human coronavirus (HCov) 229E
- test parameters: 229E Mpro EC50

The value of EC50 measured for the molecule CO[C@@H]1C[C@H](C(=O)N(c2ccc(C(C)(C)C)cc2)C(C)(C(=O)NC2CCCCC2)c2cccnc2)N(C#N)C1 (single isomer, unassigned) [1230 Isomer 2] turned out to be < 2000 nM

The value of EC50 measured for the molecule CS(=O)(=O)[C@H]1C[C@H](C(=O)N(c2ccc(S(F)(F)(F)(F)F)cc2)C(C(=O)NC2CCC(F)(F)CC2)c2cncc(F)c2)N(C#N)C1 (single isomer, unassigned) [1105 Isomer 1] turned out to be < 2000 nM

The value of EC50 measured for the molecule CO[C@H]1C[C@H](C(=O)N(c2ccc(C(C)(C)C)cc2)C(C(=O)NC2CCCCC2)c2cccnc2)N(C#N)C1 (single isomer, unassigned) [Compound 293 Isomer 2] turned out to be 2000 to 10000 nM

The value of EC50 measured for the molecule O=C(NC1CCC(F)(F)CC1)C(c1cncc(F)c1)N(C(=O)C1CCC1(O)O)c1ccc(S(F)(F)(F)(F)F)cc1 (centres unmarked) [Compound 1133a] turned out to be > 30000 nM

The value of EC50 measured for the molecule CO[C@H]1C[C@H](C(=O)N(c2ccc(C(C)(C)C)cc2)C(C(=O)NC2CCCCC2)c2cccnc2)N(C#N)C1 (single isomer, unassigned) [Compound 293 Isomer 1] turned out to be < 2000 nM

###

- measured on: UniProt P0C6X1
- assay comment: 229E Mpro enzymatic assay (standard methods, SARS-CoV2 Mpro assay given as exemplary)
- Format: biochemical, human coronavirus (HCov) 229E
- test parameters: 229E Mpro EC50
pEC50: −log10 of the molar value.
outcome measure: pEC50

The value of pEC50 measured for the compound CO[C@@H]1C[C@H](C(=O)N(c2ccc(C(C)(C)C)cc2F)C(C(=O)NC2CCC(F)(F)CC2)c2cncc(F)c2)N(C#N)C1 (single isomer, unassigned) [1207 Isomer 1] turned out to be 4.52 to 5.00

The value of pEC50 measured for the compound CC(C)(C)c1ccc(N(C(=O)[C@H]2CC(=O)CN2C#N)C(C(=O)NC2CCCCC2)c2cccnc2)cc1 (single isomer, unassigned) [Compound 278 Isomer 1] turned out to be > 5.70

The value of pEC50 measured for the compound O=C(NC1CCC(F)(F)CC1)C(c1cncc(F)c1)N(C(=O)c1cnc[nH]1)c1ccc(C2CC2)cc1F (single isomer, unassigned) [1336 Isomer 1] turned out to be 5.00 to 5.70

The value of pEC50 measured for the compound CC(C)(C)c1ccc(N(C(=O)[C@H]2CCCN2C#N)C(C(=O)N2CCNC(=O)C2)c2cccnc2)cc1 (single isomer, unassigned) [Compound 961 Isomer 2] turned out to be 5.00 to 5.70

The value of pEC50 measured for the compound CC(C)(C#N)C(=O)N(c1ccc(S(F)(F)(F)(F)F)cc1)C(C(=O)NC1CCC(F)(F)CC1)c1cncc(F)c1 (single isomer, unassigned) [Compound 1316 Isomer 1] turned out to be 4.52 to 5.00

The value of pEC50 measured for the compound CC1(C(=O)N(c2ccc(C(C)(C)C)cc2)C(C(=O)NC2CCCCC2)c2cccnc2)CNC1 (stereo not shown) [Compound 129a] turned out to be < 4.52

The value of pEC50 measured for the compound N#CN1CC2C[C@@]1(C(=O)N(c1ccc(S(F)(F)(F)(F)F)cc1)C(C(=O)NC1CCC(F)(F)CC1)c1cncc(F)c1)CO2 (stereo partly shown) [Compound 1136b] turned out to be 5.00 to 5.70

The value of pEC50 measured for the compound CN1CC(C(=O)N(c2ccc(S(F)(F)(F)(F)F)cc2)C(C(=O)NC2CCC(F)(F)CC2)c2cncc(F)c2)N(C#N)CC1=O (single isomer, unassigned) [Compound 1161 Isomer 3] turned out to be 5.00 to 5.70

The value of pEC50 measured for the compound CO[C@@H]1C[C@H](C(=O)N(c2ccc(C(C)(C)C)cc2)C(C)(C(=O)NC2CCCCC2)c2cccnc2)N(C#N)C1 (single isomer, unassigned) [1230 Isomer 1] turned out to be 5.00 to 5.70

The value of pEC50 measured for the compound CC(C)(C)c1ccc(N(C(=O)[C@H]2C[C@H](Oc3ccccc3)CN2C#N)C(C(=O)NC2CCCCC2)c2cccnc2)cc1 (single isomer, unassigned) [Compound 308 Isomer 2] turned out to be > 5.70

The value of pEC50 measured for the compound N#CN1C[C@H](O)C[C@@H]1C(=O)N(c1ccc(C2CC2)c(F)c1)C(C(=O)NC1CCCCC1)c1cccnc1 (single isomer, unassigned) [Compound 767 Isomer 1] turned out to be > 5.70

The value of pEC50 measured for the compound CO[C@@H]1C[C@H](C(=O)N(c2ccc(S(F)(F)(F)(F)F)cc2)C(C(=O)NCC(C)(C)OC)c2cccnc2)N(C#N)C1 (single isomer, unassigned) [1194 Isomer 1] turned out to be > 5.70

The value of pEC50 measured for the compound N#CN1CCOC[C@@H]1C(=O)N(c1ccc(C2CC2)cc1F)C(C(=O)NC1CCC(F)(F)CC1)c1cnccc1C(F)(F)F (single isomer, unassigned) [Compound 1313 Isomer 1] turned out to be > 5.70

The value of pEC50 measured for the compound CC(C)(C)c1ccc(NC2(C#N)CCCc3ccncc32)cc1 (stereo not shown) [Compound 690a] turned out to be < 4.52

The value of pEC50 measured for the compound CO[C@@H]1C[C@H](C(=O)N(c2ccc(S(F)(F)(F)(F)F)cc2)C(C(=O)NC2CCC(F)(F)CC2)c2cnccc2C#N)N(C#N)C1 (stereo partly shown) turned out to be > 5.70

The value of pEC50 measured for the compound CC1(C)C[C@H](C(=O)N(c2ccc(C(C)(C)C)cc2)C(C(=O)NC2CCCCC2)c2cccnc2)N(C#N)C1 (single isomer, unassigned) [Compound 268 Isomer 2] turned out to be > 5.70

The value of pEC50 measured for the compound CC(C)(C)c1ccc(N(C(=O)[C@H]2CC(F)(F)CN2C#N)C(C(=O)NC2CCCCC2)c2cccnc2)cc1 (single isomer, unassigned) [Compound 876 Isomer 1] turned out to be > 5.70

The value of pEC50 measured for the compound C[C@@]1(O)C[C@H](C(=O)N(c2ccc(-c3ccccc3)cc2)C(C(=O)NC2CCC(F)(F)CC2)c2cncc(F)c2)N(C#N)C1 (single isomer, unassigned) [1330 Isomer 2] turned out to be 5.00 to 5.70

The value of pEC50 measured for the compound CC(C)(C)c1ccc(N(C(=O)C2CNC2)C(C(=O)NC2CCCCC2)c2cccnc2)cc1 (stereo not shown) turned out to be < 4.52

The value of pEC50 measured for the compound CC(C)(C)c1ccc(N(C(=O)[C@H]2C[C@@H](F)CN2C#N)C(C(=O)NC2CCCCC2)c2cccnc2)cc1 (single isomer, unassigned) [Compound 870 Isomer 1] turned out to be > 5.70

The value of pEC50 measured for the compound N#CN1CCOC[C@@H]1C(=O)N(c1ccc(S(F)(F)(F)(F)F)cc1)C(C(=O)NC1CCC(F)(F)CC1)c1cccnc1 (stereo partly shown) turned out to be > 5.70

The value of pEC50 measured for the compound CC(C)(C)c1ccc(N(C(=O)[C@H]2CCCN2C#N)C(C(=O)NCCN2CCOCC2)c2cccnc2)cc1 (single isomer, unassigned) [391 Isomer 2] turned out to be 5.00 to 5.70
